- Subject of test: MER (Homo sapiens, UniProt Q12866)
- Sequence (Q12866 21-999): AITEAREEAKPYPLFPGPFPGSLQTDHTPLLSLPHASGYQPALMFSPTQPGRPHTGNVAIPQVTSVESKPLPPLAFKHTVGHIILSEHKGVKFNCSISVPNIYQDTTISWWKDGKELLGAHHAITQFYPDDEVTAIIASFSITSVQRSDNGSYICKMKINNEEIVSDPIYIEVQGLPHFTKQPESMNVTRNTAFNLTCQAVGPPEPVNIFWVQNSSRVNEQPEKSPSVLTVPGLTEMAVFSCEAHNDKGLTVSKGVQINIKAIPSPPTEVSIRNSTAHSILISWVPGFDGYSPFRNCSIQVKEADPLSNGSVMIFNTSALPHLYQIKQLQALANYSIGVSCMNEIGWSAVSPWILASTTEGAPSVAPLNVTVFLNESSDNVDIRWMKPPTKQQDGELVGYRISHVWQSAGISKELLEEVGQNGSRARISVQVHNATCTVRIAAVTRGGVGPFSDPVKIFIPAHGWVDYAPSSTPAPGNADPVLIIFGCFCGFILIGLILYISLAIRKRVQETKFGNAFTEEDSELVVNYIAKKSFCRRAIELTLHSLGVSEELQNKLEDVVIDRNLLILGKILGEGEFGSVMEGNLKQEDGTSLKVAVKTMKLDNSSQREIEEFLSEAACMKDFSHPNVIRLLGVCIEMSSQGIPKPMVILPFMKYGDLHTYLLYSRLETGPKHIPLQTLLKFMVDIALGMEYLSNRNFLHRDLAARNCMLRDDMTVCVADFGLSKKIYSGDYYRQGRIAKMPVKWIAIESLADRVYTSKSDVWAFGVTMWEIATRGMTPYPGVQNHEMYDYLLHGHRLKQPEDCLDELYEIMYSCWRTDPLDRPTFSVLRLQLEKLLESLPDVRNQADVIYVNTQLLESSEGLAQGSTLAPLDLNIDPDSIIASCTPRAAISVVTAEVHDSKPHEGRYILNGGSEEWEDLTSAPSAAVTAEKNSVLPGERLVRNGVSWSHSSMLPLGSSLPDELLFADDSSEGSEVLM
- Run description: Inhibition of receptor phosphorylation, ELISA, MERTK-transfected 293A cells
- Type: cell-based
Result type: pIC50
Reminder that pIC50 means the negative base-10 logarithm of the concentration expressed in mol/L.

Please report the measured pIC50 for CNC(=O)c1cc2c(Oc3ccc(NC(=O)C4(C(=O)Nc5ccc(F)cc5)CC4)cc3)ccnc2cc1OC [XL092] tested on MER (Homo sapiens, UniProt Q12866).
8.22

* * *

- Subject of test: TYRO3 (Homo sapiens, UniProt Q06418)
- Sequence (Q06418 41-890): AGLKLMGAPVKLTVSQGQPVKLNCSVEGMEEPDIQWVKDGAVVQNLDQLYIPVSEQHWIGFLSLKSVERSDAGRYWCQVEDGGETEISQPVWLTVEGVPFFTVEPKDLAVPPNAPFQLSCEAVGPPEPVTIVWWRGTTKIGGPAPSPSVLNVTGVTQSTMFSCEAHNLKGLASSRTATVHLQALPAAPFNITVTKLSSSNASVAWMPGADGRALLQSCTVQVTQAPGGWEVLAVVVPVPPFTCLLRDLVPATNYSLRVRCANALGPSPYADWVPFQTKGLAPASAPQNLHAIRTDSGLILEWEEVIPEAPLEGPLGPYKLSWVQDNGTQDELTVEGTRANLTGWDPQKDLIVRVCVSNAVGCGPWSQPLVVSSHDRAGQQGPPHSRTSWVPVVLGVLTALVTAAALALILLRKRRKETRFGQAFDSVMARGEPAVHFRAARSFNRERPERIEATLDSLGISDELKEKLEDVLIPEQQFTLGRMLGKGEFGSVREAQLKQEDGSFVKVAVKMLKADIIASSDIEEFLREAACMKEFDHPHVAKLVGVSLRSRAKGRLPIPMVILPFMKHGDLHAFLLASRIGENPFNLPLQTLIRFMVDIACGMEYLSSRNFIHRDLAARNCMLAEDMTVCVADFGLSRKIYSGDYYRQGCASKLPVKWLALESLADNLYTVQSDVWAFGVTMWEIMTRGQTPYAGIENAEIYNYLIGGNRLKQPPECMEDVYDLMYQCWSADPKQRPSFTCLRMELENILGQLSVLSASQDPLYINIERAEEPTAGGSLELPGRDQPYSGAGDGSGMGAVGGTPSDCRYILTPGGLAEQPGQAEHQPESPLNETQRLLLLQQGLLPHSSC
- Run description: Inhibition of receptor phosphorylation, ELISA, TYRO3-transfected 293A cells
Result type: IC50
Respond with a number, then the unit of measure.

Please report the measured IC50 for CNC(=O)c1cc2c(Oc3ccc(NC(=O)C4(C(=O)Nc5ccc(F)cc5)CC4)cc3)ccnc2cc1OC tested on TYRO3 (Homo sapiens, UniProt Q06418).
306 nM

* * *

- Subject of test: MET (Homo sapiens, UniProt P08581, DEL964-1010)
- Run description: Inhibition of receptor phosphorylation, ELISA, Hs 746T cells
Result type: IC50 (nM)
The figure you give is taken to be in nM; do not add the unit.

Determine its reported IC50: CNC(=O)c1cc2c(Oc3ccc(NC(=O)C4(C(=O)Nc5ccc(F)cc5)CC4)cc3)ccnc2cc1OC [XL092]
25.4

* * *

- Subject of test: AXL (Homo sapiens)
- Sequence (P30530 26-894): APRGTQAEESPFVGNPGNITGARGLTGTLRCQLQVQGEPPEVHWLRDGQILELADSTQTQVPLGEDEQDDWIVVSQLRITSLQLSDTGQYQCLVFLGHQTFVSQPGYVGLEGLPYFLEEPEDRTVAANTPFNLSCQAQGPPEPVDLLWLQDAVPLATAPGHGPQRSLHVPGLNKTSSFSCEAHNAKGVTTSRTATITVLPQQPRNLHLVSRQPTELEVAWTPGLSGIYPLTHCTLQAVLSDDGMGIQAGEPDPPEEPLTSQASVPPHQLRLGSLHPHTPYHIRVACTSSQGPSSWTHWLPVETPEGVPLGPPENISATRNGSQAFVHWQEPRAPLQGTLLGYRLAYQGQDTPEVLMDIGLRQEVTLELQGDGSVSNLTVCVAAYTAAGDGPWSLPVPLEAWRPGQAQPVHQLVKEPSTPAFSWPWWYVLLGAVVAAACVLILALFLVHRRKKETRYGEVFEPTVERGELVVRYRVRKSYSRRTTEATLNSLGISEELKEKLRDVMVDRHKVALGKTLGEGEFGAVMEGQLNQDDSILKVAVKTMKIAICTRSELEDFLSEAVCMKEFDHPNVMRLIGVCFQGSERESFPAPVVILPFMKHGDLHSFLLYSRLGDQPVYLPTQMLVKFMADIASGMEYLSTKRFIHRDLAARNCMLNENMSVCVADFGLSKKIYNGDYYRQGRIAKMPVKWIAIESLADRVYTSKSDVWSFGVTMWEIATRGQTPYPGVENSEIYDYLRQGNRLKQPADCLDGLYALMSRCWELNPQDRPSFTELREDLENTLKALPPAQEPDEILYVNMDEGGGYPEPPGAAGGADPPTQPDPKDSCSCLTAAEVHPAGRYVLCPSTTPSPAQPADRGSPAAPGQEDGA
- Run description: Inhibition of receptor phosphorylation, ELISA, A-172 cells/GAS6
Result type: IC50

Determine its reported IC50: CNC(=O)c1cc2c(Oc3ccc(NC(=O)C4(C(=O)Nc5ccc(F)cc5)CC4)cc3)ccnc2cc1OC
3.89 nM

* * *

- Run description: Plasma protein binding, rapid equilibrium dialysis
- Format: in vitro ADME
- Assay context: mouse
Result type: fraction unbound at 16 h, 10 μmol/L
Respond numerically, and do not add a unit to the figure.

Determine its reported fraction unbound at 16 h, 10 μmol/L: CNC(=O)c1cc2c(Oc3ccc(NC(=O)C4(C(=O)Nc5ccc(F)cc5)CC4)cc3)ccnc2cc1OC
0.003

* * *

- Subject of test: VEGFR2 (Homo sapiens)
- Sequence (P35968 20-1356): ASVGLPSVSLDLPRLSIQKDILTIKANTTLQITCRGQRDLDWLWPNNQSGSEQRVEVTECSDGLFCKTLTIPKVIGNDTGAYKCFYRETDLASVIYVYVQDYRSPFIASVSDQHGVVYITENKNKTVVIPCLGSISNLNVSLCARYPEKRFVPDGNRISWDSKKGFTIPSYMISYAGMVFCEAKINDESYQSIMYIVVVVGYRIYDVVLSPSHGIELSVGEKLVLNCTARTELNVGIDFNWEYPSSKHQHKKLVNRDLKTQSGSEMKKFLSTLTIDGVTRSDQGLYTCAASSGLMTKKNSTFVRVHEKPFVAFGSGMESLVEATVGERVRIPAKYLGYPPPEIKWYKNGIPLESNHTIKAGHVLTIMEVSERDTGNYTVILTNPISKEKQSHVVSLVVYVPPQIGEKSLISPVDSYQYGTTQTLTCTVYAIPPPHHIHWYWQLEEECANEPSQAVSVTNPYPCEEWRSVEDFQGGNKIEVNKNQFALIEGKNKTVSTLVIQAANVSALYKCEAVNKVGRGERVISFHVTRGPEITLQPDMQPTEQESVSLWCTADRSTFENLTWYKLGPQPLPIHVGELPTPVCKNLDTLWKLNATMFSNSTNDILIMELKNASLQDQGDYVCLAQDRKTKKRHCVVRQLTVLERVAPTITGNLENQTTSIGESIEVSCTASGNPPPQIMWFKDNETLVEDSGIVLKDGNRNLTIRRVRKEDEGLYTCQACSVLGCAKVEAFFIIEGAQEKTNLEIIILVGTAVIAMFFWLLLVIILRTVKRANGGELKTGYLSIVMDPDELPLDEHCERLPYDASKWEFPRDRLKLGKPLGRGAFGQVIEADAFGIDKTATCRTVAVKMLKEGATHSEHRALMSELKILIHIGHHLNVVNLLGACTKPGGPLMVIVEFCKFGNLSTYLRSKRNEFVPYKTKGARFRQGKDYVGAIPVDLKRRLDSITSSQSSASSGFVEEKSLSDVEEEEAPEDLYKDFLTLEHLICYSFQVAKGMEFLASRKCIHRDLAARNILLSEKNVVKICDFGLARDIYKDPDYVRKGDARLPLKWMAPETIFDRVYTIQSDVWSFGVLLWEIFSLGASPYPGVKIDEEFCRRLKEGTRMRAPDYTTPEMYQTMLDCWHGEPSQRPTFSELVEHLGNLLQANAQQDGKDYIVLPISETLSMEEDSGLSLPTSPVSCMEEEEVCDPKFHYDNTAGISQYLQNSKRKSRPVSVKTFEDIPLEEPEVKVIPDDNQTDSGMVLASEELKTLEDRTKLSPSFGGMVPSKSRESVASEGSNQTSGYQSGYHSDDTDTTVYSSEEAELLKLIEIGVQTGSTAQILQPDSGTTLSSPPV
- Run description: Inhibition of receptor phosphorylation, ELISA, HUVEC/VEGF165
- Assay context: Cellular IC50 ± SD, VEGFR2 autophosphorylation, serum-free
Result type: IC50 (nM)
The figure you give is taken to be in nM; do not add the unit.

Please report the measured IC50 for CNC(=O)c1cc2c(Oc3ccc(NC(=O)C4(C(=O)Nc5ccc(F)cc5)CC4)cc3)ccnc2cc1OC tested on VEGFR2 (Homo sapiens).
1.57
